species: Homo sapiens; assay: Selectivity ratio (m5/m3)
ASSAY_ENDPOINT: Selectivity
Form: value (number only, do not type unit).

Recorded Selectivity, per entry:
{"columns": ["COMPOUND", "EXPERIMENTAL_VALUE"],
 "data": [
  ["O=C(CCNC(=O)[C@@H]1CCCN1C(=O)CC(c1ccccc1)(c1ccccc1)c1ccccc1)NC[C@H]1CCCN(CC2CCCCC2)C1", 210],
  ["O=C(CCNC(=O)CC(c1ccccc1)(c1ccccc1)c1ccccc1)NCCC(=O)NC[C@H]1CCCN(CC2CCCCC2)C1", 40],
  ["O=C(NC[C@H]1CCCN(CC2CCCCC2)C1)[C@H]1CCCN1C(=O)[C@@H]1CCCN1C(=O)CC(c1ccccc1)(c1ccccc1)c1ccccc1", 580],
  ["O=C(CCCNC(=O)CNC(=O)CC(c1ccccc1)(c1ccccc1)c1ccccc1)NCC1CCCN(CC2CCCCC2)C1 (stereo not drawn)", 320],
  ["O=C(CCNC(=O)CNC(=O)CC(c1ccccc1)(c1ccccc1)c1ccccc1)NC[C@H]1CCCN(CC2CCCCC2)C1", 120]
]}

Inquiry: Given O=C(CNC(=O)[C@@H]1CCCN1C(=O)CC(c1ccccc1)(c1ccccc1)c1ccccc1)NC[C@H]1CCCN(CC2CCCCC2)C1 , state its recorded Selectivity.
Reply text: 890

Inquiry: # iterate: O=C(CCCNC(=O)CC(c1ccccc1)(c1ccccc1)c1ccccc1)NCCC(=O)NCC1CCCN(CC2CCCCC2)C1 (stereo not drawn)
Reply text: 95

Inquiry: Consider next the compound O=C(CCCCCNC(=O)CC(c1ccccc1)(c1ccccc1)c1ccccc1)NC[C@H]1CCCN(CC2CCCCC2)C1 in the same way.
Reply text: 200
